B1: library; numbered along this chain (parent)
chain: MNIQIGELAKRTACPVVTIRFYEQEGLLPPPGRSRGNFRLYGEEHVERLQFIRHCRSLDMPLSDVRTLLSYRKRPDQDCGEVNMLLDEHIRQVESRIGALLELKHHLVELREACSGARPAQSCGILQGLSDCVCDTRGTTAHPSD

Variants of: B1
Assay: sfGFP reporter fluorescence (15 h) (µM FITC); higher = stronger transcriptional activation
Details: library round: Round 1; ligand: 30 µM Zn
Short version: sfGFP reporter fluorescence at least 1 is Met, less is Not met.

MNIQIGELAKRTACPVVTIRFYEQEGLLPPPGRSRGNFRLYGEEHVERLQFIRHCRSLDLPLSKVRTLLSYRKRPDQDCGEVNMLLDEHIRQVESRIGALLELKHHCVLLREACSGARPAQSCGILQILSTCVCDTRGTTAHPSD [M60L D64K L107C E109L G128I D131T]: Met
MNIQIGELAKRTACPVVTIRFYEQEGLLPPPGRSRGNFRLYGEEHVERLQFIRHCRSLDMPLSDVRTLLSYRKRPDQDCGEVNMLLDEHIRQVCSRIGALLELVHHLVELREACSGARPAQSCGILQGLSDCVCDTRGTTAHPSD [E94C K104V]: Not met
MNIQIGELAKRTACPVVTIRFYEQEGLLPPPGRSRGNFRLYGEEHVERLQFIRHCRSLDMNLSKVRTLLSYRKRPDQDCGEVTMLLDEHIRQVESRIGALLELKHHLVELREACSGARPAQSCGILQGLSDCVCDTRGTTAHPSD [P61N D64K N83T]: Not met
MNIQIGELAKRTACPVVTIRFYEQEGLLPPPGRSRGNFRLYGEEHVERLQFIRHCRSLDMPLSDVRTLLSYRKRPDQDCGEVTMLLDEHIRQVESRIGALLELKHHLVELREACSGARPAQSCGILQGLSSCVCRTRGTTAHPSD [N83T D131S D135R]: Not met
MNIQIGELAKRTACPVVTIRFYEQEGLLPPPGRSRGNFRLYGEEHVERLQFIRHCRSLDMPLSDVRTLLSYRKRPDQDCGEVNMLLDEHIRQVESRIGALLELVHHLVELREACSGARPAQSCGILQGLSDCVCATRGTTAHPSD [K104V D135A]: Not met

Here is another variant to look at.
IN: # bool: sfGFP reporter fluorescence of MNIQIGELAKRTACPVVTIRFYEQEGLLPPPGRSRGNFRLYGEEHVERLQFIRHCRSLDLPLSDVRTLLSYRKRPDQDCGEVNMLLDEHIRQVESRIGALLELKHHLVELREACSGARPAQSCGILQGLSCCVCDTRGTTAHPSD [M60L D131C] >= 1
OUT: Not met
